Reference for the values: patent US20120088791A1

Experimental System: rM4 (Rattus norvegicus, UniProt P08485)
Sequence (P08485 whole entry): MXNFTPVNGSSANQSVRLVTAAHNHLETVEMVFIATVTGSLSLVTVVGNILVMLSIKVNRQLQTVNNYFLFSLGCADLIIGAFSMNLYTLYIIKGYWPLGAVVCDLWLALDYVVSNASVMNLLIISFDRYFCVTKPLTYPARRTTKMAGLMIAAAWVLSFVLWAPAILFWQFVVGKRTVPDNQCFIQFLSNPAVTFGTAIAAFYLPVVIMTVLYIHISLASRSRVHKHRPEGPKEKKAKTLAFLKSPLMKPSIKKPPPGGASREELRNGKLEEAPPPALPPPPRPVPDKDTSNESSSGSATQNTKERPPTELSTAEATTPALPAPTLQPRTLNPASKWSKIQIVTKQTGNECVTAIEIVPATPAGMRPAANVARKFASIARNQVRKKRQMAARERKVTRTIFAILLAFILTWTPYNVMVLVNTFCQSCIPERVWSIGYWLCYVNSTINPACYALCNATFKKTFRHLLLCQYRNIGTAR
Protocol Text: Calcium mobilization assay, CHO-K1 cells stably expressing rM4-Gqi5
Condition Context: selectivity for M1; read-out: potency (EC50) versus M4
Measured Quantity: EC50

| Given Smiles | EC50 |
| --- | --- |
| CCOC(=O)N1CCC(N2CCC[C@@H](NC(=O)c3ccccc3)C2)CC1 | > 50 µM |

Next up:
Need EC50 of CCOC(=O)N1CCC(N2CCC[C@@H](NC(=O)c3ccccc3C)C2)CC1 , thanks.
> 50 µM

###

Experimental System: rM1 (Rattus norvegicus, UniProt P08482)
Construct: host or cells: CHO-K1
Sequence (P08482 whole entry): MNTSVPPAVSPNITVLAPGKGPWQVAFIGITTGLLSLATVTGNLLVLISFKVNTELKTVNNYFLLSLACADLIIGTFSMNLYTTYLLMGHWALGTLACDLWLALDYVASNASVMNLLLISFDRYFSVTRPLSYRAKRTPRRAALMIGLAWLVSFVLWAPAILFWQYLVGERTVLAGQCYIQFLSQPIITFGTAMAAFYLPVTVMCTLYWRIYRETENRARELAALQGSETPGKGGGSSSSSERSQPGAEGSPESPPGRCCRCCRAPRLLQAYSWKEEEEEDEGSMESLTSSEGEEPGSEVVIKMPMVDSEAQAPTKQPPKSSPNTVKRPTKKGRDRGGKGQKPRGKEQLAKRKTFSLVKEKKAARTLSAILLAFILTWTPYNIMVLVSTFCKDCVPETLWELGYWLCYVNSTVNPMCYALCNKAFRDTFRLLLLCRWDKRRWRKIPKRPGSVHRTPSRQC
Protocol Text: Calcium mobilization assay, CHO-K1 cells stably expressing rM1
Type: cell-based
Condition Context: RM1; Table 1, R-enantiomers; read-out: Efficacy (% Max ACh)
Exercise: state measured Emax for each of the compounds provided.
Numbers only, in %.

Below, each entry is followed by its recorded Emax result.
| Given Smiles | Meas Value |
| --- | --- |
| CCOC(=O)N1CCC(N2CCC[C@@H](NC(=O)C3CCCCC3)C2)CC1 | 44 |
| CCOC(=O)N1CCC(N2CCC[C@@H](NC(=O)C3CCCC3)C2)CC1 | 35 |
| CCOC(=O)N1CCC(N2CCC[C@@H](NC(=O)c3cccc(F)c3)C2)CC1 | 92 |
| CCOC(=O)N1CCC(N2CCC[C@@H](NC(=O)c3ccccc3)C2)CC1 | 91 |

For each entry beneath this line, provide reported Emax.
1. CCOC(=O)N1CCC(N2CCC[C@@H](NC(=O)c3cccs3)C2)CC1
2. CCOC(=O)N1CCC(N2CCC[C@@H](NC(=O)c3ccccc3C)C2)CC1
3. CCOC(=O)N1CCC(N2CCC[C@@H](NC(=O)c3ccc(F)cc3C)C2)CC1
4. CCOC(=O)N1CCC(N2CCC[C@@H](NC(=O)c3ccc(OC)cc3)C2)CC1
5. CCOC(=O)N1CCC(N2CCC[C@@H](NC(=O)c3ccccc3Cl)C2)CC1
6. CCOC(=O)N1CCC(N2CCC[C@@H](NC(=O)c3ccc(F)c(F)c3)C2)CC1

[61, 96, 77, 63, 57, 84]

For each entry beneath this line, provide reported Emax.
1. CCOC(=O)N1CCC(N2CCC[C@@H](NC(=O)c3ccc(C)cc3)C2)CC1
2. CCOC(=O)N1CCC(N2CCC[C@@H](NC(=O)c3cccc(OC)c3)C2)CC1

1. 14
2. 91

###

Experimental System: hM3 (Homo sapiens, UniProt P20309)
Sequence (P20309 whole entry): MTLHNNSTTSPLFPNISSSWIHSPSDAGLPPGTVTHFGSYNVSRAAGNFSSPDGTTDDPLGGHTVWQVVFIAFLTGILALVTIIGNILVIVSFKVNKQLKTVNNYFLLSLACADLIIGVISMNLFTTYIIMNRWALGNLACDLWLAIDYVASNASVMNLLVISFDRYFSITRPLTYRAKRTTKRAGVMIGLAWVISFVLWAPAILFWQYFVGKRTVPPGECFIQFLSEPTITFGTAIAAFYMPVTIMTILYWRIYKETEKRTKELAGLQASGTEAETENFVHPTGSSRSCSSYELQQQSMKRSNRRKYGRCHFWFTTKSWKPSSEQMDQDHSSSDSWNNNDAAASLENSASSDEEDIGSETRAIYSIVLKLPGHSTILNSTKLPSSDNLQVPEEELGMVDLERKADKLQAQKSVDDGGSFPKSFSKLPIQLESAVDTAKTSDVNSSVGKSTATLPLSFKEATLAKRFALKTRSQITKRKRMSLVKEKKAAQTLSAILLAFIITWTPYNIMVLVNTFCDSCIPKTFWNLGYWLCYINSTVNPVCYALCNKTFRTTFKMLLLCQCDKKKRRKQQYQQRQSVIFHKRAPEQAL
Protocol Text: Calcium mobilization assay, CHO cells stably expressing hM3
Condition Context: selectivity for M1; read-out: potency (EC50) versus M3
pEC50: −log10 of the molar value.
Exercise: state measured pEC50 for each of the molecules provided.

| Given Smiles | Experimental System | Measured Quantity | Meas Value |
| --- | --- | --- | --- |
| CCOC(=O)N1CCC(N2CCC[C@@H](NC(=O)c3ccccc3C)C2)CC1 | hM3 (Homo sapiens, UniProt P20309) | pEC50 | < 4.30 |

Next up:
Need pEC50 of CCOC(=O)N1CCC(N2CCC[C@@H](NC(=O)c3ccccc3)C2)CC1 , thanks.
< 4.30

###

Experimental System: hM5 (Homo sapiens, UniProt P08912)
Sequence (P08912 whole entry): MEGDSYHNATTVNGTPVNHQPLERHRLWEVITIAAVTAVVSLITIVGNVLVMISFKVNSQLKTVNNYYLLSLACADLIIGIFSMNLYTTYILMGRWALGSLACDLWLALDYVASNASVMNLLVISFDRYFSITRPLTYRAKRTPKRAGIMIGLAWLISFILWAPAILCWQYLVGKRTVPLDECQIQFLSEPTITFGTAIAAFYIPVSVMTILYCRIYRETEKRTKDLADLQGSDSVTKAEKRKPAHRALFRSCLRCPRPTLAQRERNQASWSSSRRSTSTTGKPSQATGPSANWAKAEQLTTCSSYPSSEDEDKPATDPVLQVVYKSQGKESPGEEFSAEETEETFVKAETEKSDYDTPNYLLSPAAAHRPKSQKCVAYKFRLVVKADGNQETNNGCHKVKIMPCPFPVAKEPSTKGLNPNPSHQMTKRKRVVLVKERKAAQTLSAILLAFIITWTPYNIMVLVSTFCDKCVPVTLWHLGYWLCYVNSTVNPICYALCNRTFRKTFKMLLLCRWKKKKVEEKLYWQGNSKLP
Protocol Text: Calcium mobilization assay, CHO cells stably expressing hM5
Condition Context: selectivity for M1; read-out: potency (EC50) versus M5
pEC50: −log10 of the molar value.
Measured Quantity: pEC50

| Given Smiles | pEC50 |
| --- | --- |
| CCOC(=O)N1CCC(N2CCC[C@@H](NC(=O)c3ccccc3)C2)CC1 | < 4.30 |

Next up:
Need pEC50 of CCOC(=O)N1CCC(N2CCC[C@@H](NC(=O)c3ccccc3C)C2)CC1 , thanks.
< 4.30

###

Experimental System: hM2 (Homo sapiens, UniProt P08172)
Sequence (P08172 whole entry): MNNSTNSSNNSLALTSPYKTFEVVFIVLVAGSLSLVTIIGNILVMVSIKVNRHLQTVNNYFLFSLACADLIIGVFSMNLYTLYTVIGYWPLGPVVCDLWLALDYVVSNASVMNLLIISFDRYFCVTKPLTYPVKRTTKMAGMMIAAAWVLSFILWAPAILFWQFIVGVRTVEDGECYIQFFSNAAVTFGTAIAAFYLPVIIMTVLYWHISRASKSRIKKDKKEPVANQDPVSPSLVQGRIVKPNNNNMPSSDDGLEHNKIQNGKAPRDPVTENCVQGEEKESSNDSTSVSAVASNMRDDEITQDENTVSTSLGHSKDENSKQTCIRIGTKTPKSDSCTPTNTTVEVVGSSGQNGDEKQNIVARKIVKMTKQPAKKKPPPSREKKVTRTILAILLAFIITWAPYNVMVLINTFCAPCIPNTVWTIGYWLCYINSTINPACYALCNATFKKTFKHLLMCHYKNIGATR
Protocol Text: Calcium mobilization assay, CHO cells stably expressing hM2-Gqi5
Condition Context: selectivity for M1; read-out: potency (EC50) versus M2
Measured Quantity: EC50

| Given Smiles | EC50 |
| --- | --- |
| CCOC(=O)N1CCC(N2CCC[C@@H](NC(=O)c3ccccc3)C2)CC1 | > 50 µM |

Next up:
Need EC50 of CCOC(=O)N1CCC(N2CCC[C@@H](NC(=O)c3ccccc3C)C2)CC1 , thanks.
> 50 µM

###

Exercise: state measured pEC50 for each of the compounds provided.
Experimental System: rM1 (Rattus norvegicus)
Construct: host or cells: CHO-K1
Protocol Text: Calcium mobilization assay, CHO-K1 cells stably expressing rM1
Format: cell-based
Condition Context: Table 1, R-enantiomers; agonist-evoked calcium flux; read-out: Potency (EC50)
One number for each entry, as −log10 of the molar value.

| Given Smiles | Measured Quantity | Meas Value |
| --- | --- | --- |
| CCOC(=O)N1CCC(N2CCC[C@@H](NC(=O)c3ccc(OC)cc3)C2)CC1 | pEC50 | 6.02 |
| CCOC(=O)N1CCC(N2CCC[C@@H](NC(=O)C3CCCCC3)C2)CC1 | pEC50 | 6.16 |
| CCOC(=O)N1CCC(N2CCC[C@@H](NC(=O)C3CCCC3)C2)CC1 | pEC50 | 5.28 |
| CCOC(=O)N1CCC(N2CCC[C@@H](NC(=O)c3ccccc3C)C2)CC1 | pEC50 | 7.06 |
| CCOC(=O)N1CCC(N2CCC[C@@H](NC(=O)c3ccccc3)C2)CC1 | pEC50 | 6.90 |
| CCOC(=O)N1CCC(N2CCC[C@@H](NC(=O)c3cccc(F)c3)C2)CC1 | pEC50 | 6.84 |

For each entry beneath this line, provide reported pEC50.
1. CCOC(=O)N1CCC(N2CCC[C@@H](NC(=O)c3cccs3)C2)CC1
2. CCOC(=O)N1CCC(N2CCC[C@@H](NC(=O)c3ccc(C)cc3)C2)CC1
3. CCOC(=O)N1CCC(N2CCC[C@@H](NC(=O)c3cccc(OC)c3)C2)CC1
4. CCOC(=O)N1CCC(N2CCC[C@@H](NC(=O)c3ccc(F)c(F)c3)C2)CC1
5. CCOC(=O)N1CCC(N2CCC[C@@H](NC(=O)c3ccccc3Cl)C2)CC1
6. CCOC(=O)N1CCC(N2CCC[C@@H](NC(=O)c3ccc(F)cc3C)C2)CC1

1. 5.89
2. 6.09
3. 6.61
4. 6.51
5. 5.59
6. 7.23
